Molecular target: KRAS G12S (Homo sapiens (Human), UniProt P01116+P62937, G12S)
Sequence (P01116-2 other isoform, or with tags, fused parts or gaps G12S): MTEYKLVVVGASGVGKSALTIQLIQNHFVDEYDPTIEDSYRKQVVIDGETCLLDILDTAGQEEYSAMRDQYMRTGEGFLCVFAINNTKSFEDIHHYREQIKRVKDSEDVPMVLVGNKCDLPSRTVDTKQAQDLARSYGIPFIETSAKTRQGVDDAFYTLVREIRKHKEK
Sequence (P62937 whole entry): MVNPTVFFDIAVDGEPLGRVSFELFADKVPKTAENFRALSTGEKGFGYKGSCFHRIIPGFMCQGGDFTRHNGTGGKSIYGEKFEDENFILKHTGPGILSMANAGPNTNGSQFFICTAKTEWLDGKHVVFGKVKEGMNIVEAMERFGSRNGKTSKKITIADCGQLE
Assay: Ras-Raf (BRAF RBD) disruption / FRET / MOA assay, KRAS G12S
Assay type: biochemical
Details: Ras-Raf disruption/FRET/MOA assay; class symbols; read-out: KRAS G12S FRET data IC50
Procedure: The purpose of this biochemical assay is to measure the ability of test compounds to facilitate ternary complex formation between a nucleotide-loaded Ras isoform and cyclophilin A; the resulting ternary complex disrupts binding to a BRAF^RBD construct, inhibiting Ras signaling through a RAF effector. Compound is present in plate wells as a 10-point 3-fold dilution series starting at a final concentration of 30 μM. […]
pIC50: −log10 of the molar value.
# pIC50 listing for each entry below

See these solved cases before continuing.
Compound: CCn1c(-c2cccnc2[C@H](C)OC)c2c3cc(ccc31)-c1cccc(c1)C[C@H](NC(=O)[C@H](C(C)C)N(C)C(=O)[C@H]1CCN(C(=O)C#CC(C)(C)N(C)C)C1)C(=O)N1CCC[C@H](N1)C(=O)OCC(C)(C)C2 (atropisomer, axis not shown) [Example A339]
pIC50: 5.00 to 6.00
//
Compound: COCc1ncccc1-c1nc2ccc3cc2n1CC(C)(C)COC(=O)[C@@H]1CCCN(N1)C(=O)[C@@H](NC(=O)[C@H](C(C)C)N(C)C(=O)[C@H]1CCN(C(=O)C#CCN2CCOCC2)C1)Cc1cc(O)cc-3c1
pIC50: < 5.00
//
Compound: C=CC(=O)N1CC[C@H](C(=O)N(C)[C@H](C(=O)N[C@H]2Cc3cc(O)cc(c3)-c3ccc4c(c3)c(c(-c3cc(N5CC(OC)C5)ccn3)n4CC)CC(C)(C)COC(=O)[C@@H]3CCCN(N3)C2=O)C(C)C)C1
pIC50: 5.00 to 6.00
//
Compound: CCn1c(-c2cccnc2[C@H](C)OC)c2c3cc(ccc31)-c1csc(n1)C[C@H](NC(=O)[C@H](C(C)C)N(C)C(=O)N1CCC13CN(C(=O)C#CC(C)(C)N(C)C)C3)C(=O)N1CCC[C@H](N1)C(=O)OCC(C)(C)C2 (atropisomer, axis not shown)
pIC50: 6.00 to 7.00
//
Compound: C=CC(=O)N1CC[C@H](C(=O)N2CCCCC[C@H]2C(=O)N[C@H]2Cc3nc(cs3)-c3ccc4c(c3)c(c(-c3cccnc3[C@H](C)OC)n4CC)CC(C)(C)COC(=O)[C@@H]3CCCN(N3)C2=O)C1 (atropisomer, axis not shown)
pIC50: 5.00 to 6.00

Entry `C=CC(=O)N(C)[C@H](C(=O)N[C@H]1Cc2cc(O)cc(c2)-c2ccc3c(c2)c(c(-c2cccnc2COC)n3CC)CC(C)(C)COC(=O)[C@@H]2CCCN(N2)C1=O)C(C)C` : reported pIC50 = ? 5.00 to 6.00

Form field: reported pIC50 of C=CC(=O)N1CC[C@H](C(=O)N(C)[C@H](C(=O)N[C@H]2Cc3cc(OC4O[C@H](CO)[C@@H](O)[C@H](O)[C@H]4O)cc(c3)-c3ccc4c(c3)c(c(-c3cccnc3COC)n4CC)CC(C)(C)COC(=O)[C@@H]3CCCN(N3)C2=O)C(C)C)C1 (some centres unmarked) < 5.00

# input compound: C=CC(=O)N1C[C@H](F)[C@](F)(C(=O)N(C)[C@H](C(=O)N[C@H]2Cc3cccc(c3)-c3ccc4c(c3)c(c(-c3cccnc3[C@H](C)OC)n4CC)CC(C)(C)COC(=O)[C@@H]3CCCN(N3)C2=O)C(C)C)C1 (atropisomer, axis not shown) ; wanted: its pIC50 6.00 to 7.00
